All values here come from paper PMC10298512.

Test system: HuTu 80
PROTOCOL NOTES: MTT cytotoxicity test, HuTu 80 cells
Type: cell-based, human
PROTOCOL CONDITIONS: Homo sapiens, HuTu80; MTT test, 24 h incubation, tested at 1–100 µM, three independent experiments; read-out: IC50 (µM) Cancer Cell Lines HuTu 80
MEASURE NAME: IC50 (µM)
One number for each entry, in µM.

Examples with answers:
INSERT INTO measurements (molecule, units_text, readout_value) VALUES
  ('Cc1ncc(CCl)c2cc(C(=O)Nc3ccc(S(=O)(=O)c4ccc(NC(=O)c5cc6c(CCl)cnc(C)c6oc5=O)cc4)cc3)c(=O)oc12', 'µM', 5.5),
  ('Cc1ncc(CCl)c2cc(C(=O)Nc3ccc(S(N)(=O)=O)cc3)c(=O)oc12', 'µM', 2.9);

List reported IC50 for each of these molecules:
1. Cc1ncc(CCl)c2cc(C(=O)NNC(=O)c3ccncc3)c(=O)oc12
2. Cc1ncc(CO)c2cc(C(=O)O)c(=O)oc12

stdout:
[61.2, 57.6]

List reported IC50 for each of these molecules:
1. Cc1ncc(CCl)c2cc(C(=O)Nc3cccc(S(=O)(=O)c4cccc(NC(=O)c5cc6c(CCl)cnc(C)c6oc5=O)c4)c3)c(=O)oc12
2. Cc1ncc(CCl)c2cc(C(=O)NNC(=O)c3ccccc3)c(=O)oc12
3. Cc1ncc(COP(=O)(O)O)c2cc(C(=O)O)c(=O)oc12
4. Cc1ncc(CCl)c2cc(C(=O)Nc3ccc([N+](=O)[O-])cc3Br)c(=O)oc12
5. Cc1ncc(CCl)c2cc(C(=O)Nc3ccccc3)c(=O)oc12
6. Cc1cc(C)nc(NS(=O)(=O)c2ccc(NC(=O)c3cc4c(CCl)cnc(C)c4oc3=O)cc2)n1
7. C#CCNC(=O)c1cc2c(CCl)cnc(C)c2oc1=O

stdout:
13.8
49.7
60.5
43
59.4
52.1
11.2

List reported IC50 for each of these molecules:
1. Cc1ncc(CCl)c2cc(C(=O)N(c3ccccc3)c3ccccc3)c(=O)oc12.Cl
2. COc1cccc2c1C(=O)c1c(O)c3c(c(O)c1C2=O)C[C@@](O)(C(=O)CO)C[C@@H]3O[C@H]1C[C@H](N)[C@H](O)[C@H](C)O1 [Doxorubicin, reference compound]
3. Cc1ccnc(NS(=O)(=O)c2ccc(NC(=O)c3cc4c(CCl)cnc(C)c4oc3=O)cc2)n1
4. Cc1ncc(CCl)c2cc(C(=O)Nc3cccc(NC(=O)c4cc5c(CCl)cnc(C)c5oc4=O)c3)c(=O)oc12
5. Cc1ncc(CCl)c2cc(C(=O)Nc3cccnc3N)c(=O)oc12
6. COc1ccccc1NC(=O)c1cc2c(CCl)cnc(C)c2oc1=O

stdout:
1: 17.4; 2: 3; 3: 18.1; 4: 81.5; 5: 72; 6: 55.3

List reported IC50 for each of these molecules:
1. O=c1[nH]cc(F)c(=O)[nH]1 [5-fluorouracil, reference compound]
2. Cc1ncc(CCl)c2cc(C(=O)Nc3ccc(NC(=O)c4cc5c(CCl)cnc(C)c5oc4=O)cc3)c(=O)oc12
3. Cc1ncc(CCl)c2cc(C(=O)Nc3ccc(S(=O)(=O)Nc4ncccn4)cc3)c(=O)oc12
4. Cc1ncc(CCl)c2cc(C(=O)Nc3ccccc3NC(=O)c3cc4c(CCl)cnc(C)c4oc3=O)c(=O)oc12
5. CC(=O)NS(=O)(=O)c1ccc(NC(=O)c2cc3c(CCl)cnc(C)c3oc2=O)cc1
6. Cc1ncc(CCl)c2cc(C(=O)Nc3ccccn3)c(=O)oc12

stdout:
1. 65.2
2. 95.4
3. 32
4. 3.1
5. 31
6. 62
